subject_of_test: Human opiate κ receptors (Homo sapiens, UniProt P41145)
Sequence (P41145 whole entry): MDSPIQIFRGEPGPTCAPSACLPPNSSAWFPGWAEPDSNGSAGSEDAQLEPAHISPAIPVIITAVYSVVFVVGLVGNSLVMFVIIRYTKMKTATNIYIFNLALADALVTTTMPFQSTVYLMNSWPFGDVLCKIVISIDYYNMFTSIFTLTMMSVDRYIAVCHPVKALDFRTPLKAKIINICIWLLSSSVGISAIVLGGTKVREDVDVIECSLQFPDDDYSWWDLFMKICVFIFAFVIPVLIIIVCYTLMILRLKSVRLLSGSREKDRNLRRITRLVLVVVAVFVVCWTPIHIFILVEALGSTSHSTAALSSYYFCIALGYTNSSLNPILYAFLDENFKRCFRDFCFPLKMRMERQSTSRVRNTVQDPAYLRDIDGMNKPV
experimental_protocol: κ opioid receptor functional assay, [35S]GTPγS binding (assay C)
Type: biochemical
condition_details: GTPγS EC50 (nM)
Some compounds, each annotated with its measured EC50.

>>> data_value("COC(=O)N1CCN(C(=O)Cc2ccc(Cl)cc2)C2C(N3CCCC3)CCCC21 (racemic) [Example 47]")
"< 10 nM"
>>> data_value("O=C(Cc1ccc(Cl)c(Cl)c1)N1CCN(C(=O)NCc2ccccc2)[C@H]2CCC[C@H](N3CCCC3)[C@H]21 [Example 100]")
"< 10 nM"
>>> data_value("O=C(O)COC(=O)N1CCN(C(=O)Cc2ccc(Cl)c(Cl)c2)C2C(N3CCCC3)CCCC21 (racemic) [Example 69]")
"10 to 100 nM"
>>> data_value("CNC(=O)N1CCN(C(=O)Cc2ccc(Cl)c(Cl)c2)C2C(N3CCCC3)CCCC21 (racemic) [Example 62]")
"10 to 100 nM"
>>> data_value("O=C(C1CCC1)N1CCN(C(=O)Cc2ccc(Cl)c(Cl)c2)C2C(N3CCCC3)CCCC21 (racemic) [Example 27]")
"< 10 nM"

Requested read-out: EC50. Entry: O=C(C1COC1)N1CCN(C(=O)Cc2ccc(Cl)c(Cl)c2)C2C(N3CCCC3)CCCC21 (racemic) [Example 54]
10 to 100 nM

Same thing, different compound: CCN(C)C1CCCC2C1N(C(=O)Cc1ccc(Cl)c(Cl)c1)CCN2C(=O)OC (racemic) [Example 45]
< 10 nM

Note, next up: O=C(Cc1ccc(Cl)c(Cl)c1)N1CCN(C(=O)OCc2ccccc2)[C@H]2CCC[C@H](N3CCCC3)[C@H]21 (racemic) [Example 16]
< 10 nM

Another compound to check: COC(=O)N1CCN(C(=O)Cc2ccc(Cl)c(Cl)c2)C2C(N3CCC(O)C3)CCCC21 (centres unmarked) [Example 11]
10 to 100 nM

Then what about the compound COC(=O)COC(=O)N1CCN(C(=O)Cc2ccc(Cl)c(Cl)c2)[C@@H]2[C@@H](N3CCCC3)CCC[C@@H]21 [Example 101] ?
< 10 nM

Param item: CN(C)S(=O)(=O)N1CCN(C(=O)Cc2ccc(Cl)c(Cl)c2)[C@@H]2[C@@H](N3CCCC3)CCC[C@@H]21 [Example 98]
< 10 nM
